- Tested on: Klebsiella pneumoniae
- Method: Antimicrobial activity against multidrug resistant Klebsiella pneumoniae isolate 13 by broth dilution method
- Format: functional
Catalogue of compounds with associated MIC

{"Compound": "CN(C)[C@@H]1C(O)=C(C(N)=O)C(=O)[C@@]2(O)C(O)=C3C(=O)c4c(O)cccc4[C@@](C)(O)[C@H]3C[C@@H]12 [TETRACYCLINE]", "Relational operator": "=", "MIC [µg/mL]": 4}
{"Compound": "C[C@@H]1CN(c2c(F)c(N)c3c(=O)c(C(=O)O)cn(C4CC4)c3c2F)C[C@H](C)N1 [SPARFLOXACIN]", "Relational operator": "=", "MIC [µg/mL]": 2.1}
{"Compound": "CC(C)(O/N=C(\\C(=O)N[C@@H]1C(=O)N2C(C(=O)[O-])=C(C[n+]3ccccc3)CS[C@H]12)c1csc(N)n1)C(=O)O [CEFTAZIDIME]", "Relational operator": "=", "MIC [µg/mL]": 16}
{"Compound": "C[C@@H](O)[C@H]1C(=O)N2C(C(=O)O)=C(SCCNC=N)C[C@H]12 [IMIPENEM ANHYDROUS]", "Relational operator": "=", "MIC [µg/mL]": 1}
{"Compound": "CCn1cc(C(=O)O)c(=O)c2cc(F)c(N3CCNCC3)cc21 [NORFLOXACIN]", "Relational operator": ">", "MIC [µg/mL]": 256}
{"Compound": "O=C(N[C@H](CO)[C@H](O)c1ccc([N+](=O)[O-])cc1)C(Cl)Cl [CHLORAMPHENICOL]", "Relational operator": "=", "MIC [µg/mL]": 128}
{"Compound": "CO/N=C(\\C(=O)N[C@@H]1C(=O)N2C(C(=O)[O-])=C(C[N+]3(C)CCCC3)CS[C@H]12)c1csc(N)n1", "Relational operator": "=", "MIC [µg/mL]": 2}
{"Compound": "CO[C@@]1(NC(=O)Cc2cccs2)C(=O)N2C(C(=O)O)=C(COC(N)=O)CS[C@@H]21 [CEFOXITIN]", "Relational operator": "=", "MIC [µg/mL]": 32}

* * *

- Tested on: Klebsiella aerogenes
- Method: Antimicrobial activity against multidrug resistant Enterobacter aerogenes isolate 16 by broth dilution method in presence of 26.3 mg/L efflux pump inhibitor phenylalanine-arginine-beta-naphthylamide
- Format: functional

{"Input smiles": "O=C(N[C@H](CO)[C@H](O)c1ccc([N+](=O)[O-])cc1)C(Cl)Cl", "Output unit": "µg/mL", "MIC": 64}
{"Input smiles": "CCn1cc(C(=O)O)c(=O)c2cc(F)c(N3CCNCC3)cc21", "Output unit": "µg/mL", "MIC": 128}
{"Input smiles": "CN(C)[C@@H]1C(O)=C(C(N)=O)C(=O)[C@@]2(O)C(O)=C3C(=O)c4c(O)cccc4[C@@](C)(O)[C@H]3C[C@@H]12", "Output unit": "µg/mL", "MIC": 2}
{"Input smiles": "C[C@@H]1CN(c2c(F)c(N)c3c(=O)c(C(=O)O)cn(C4CC4)c3c2F)C[C@H](C)N1", "Output unit": "µg/mL", "MIC": 8}

* * *

- Test system: Klebsiella aerogenes
- Method: Antimicrobial activity against multidrug resistant Enterobacter aerogenes isolate 15 by broth dilution method
- Type: functional
Label label 1 when MIC is strictly below 100 µg/mL; otherwise label label 0.

{"Molecule": "O=C(N[C@H](CO)[C@H](O)c1ccc([N+](=O)[O-])cc1)C(Cl)Cl", "Class": "label 0"}
{"Molecule": "CCn1cc(C(=O)O)c(=O)c2cc(F)c(N3CCNCC3)cc21", "Class": "label 0"}
{"Molecule": "CN(C)[C@@H]1C(O)=C(C(N)=O)C(=O)[C@@]2(O)C(O)=C3C(=O)c4c(O)cccc4[C@@](C)(O)[C@H]3C[C@@H]12", "Class": "label 1"}
{"Molecule": "CO/N=C(\\C(=O)N[C@@H]1C(=O)N2C(C(=O)[O-])=C(C[N+]3(C)CCCC3)CS[C@H]12)c1csc(N)n1", "Class": "label 1"}
{"Molecule": "CO[C@@]1(NC(=O)Cc2cccs2)C(=O)N2C(C(=O)O)=C(COC(N)=O)CS[C@@H]21", "Class": "label 0"}
{"Molecule": "C[C@@H]1CN(c2c(F)c(N)c3c(=O)c(C(=O)O)cn(C4CC4)c3c2F)C[C@H](C)N1", "Class": "label 0"}
{"Molecule": "C[C@@H](O)[C@H]1C(=O)N2C(C(=O)O)=C(SCCNC=N)C[C@H]12 [IMIPENEM ANHYDROUS]", "Class": "label 1"}
{"Molecule": "CC(C)(O/N=C(\\C(=O)N[C@@H]1C(=O)N2C(C(=O)[O-])=C(C[n+]3ccccc3)CS[C@H]12)c1csc(N)n1)C(=O)O", "Class": "label 0"}

* * *

- Test system: Klebsiella aerogenes
- Method: Antimicrobial activity against multidrug resistant Enterobacter aerogenes isolate 4 by broth dilution method in presence of 26.3 mg/L efflux pump inhibitor phenylalanine-arginine-beta-naphthylamide
- Type: functional
MIC values, listed per item

{"Input smiles": "O=C(N[C@H](CO)[C@H](O)c1ccc([N+](=O)[O-])cc1)C(Cl)Cl", "MIC (µg/mL)": 128}
{"Input smiles": "CN(C)[C@@H]1C(O)=C(C(N)=O)C(=O)[C@@]2(O)C(O)=C3C(=O)c4c(O)cccc4[C@@](C)(O)[C@H]3C[C@@H]12", "MIC (µg/mL)": 8}
{"Input smiles": "C[C@@H]1CN(c2c(F)c(N)c3c(=O)c(C(=O)O)cn(C4CC4)c3c2F)C[C@H](C)N1", "MIC (µg/mL)": 8}
{"Input smiles": "CCn1cc(C(=O)O)c(=O)c2cc(F)c(N3CCNCC3)cc21", "MIC (µg/mL)": 512}

* * *

- Test system: Klebsiella aerogenes
- Method: Antimicrobial activity against multidrug resistant Enterobacter aerogenes isolate 14 by broth dilution method
- Assay type: functional

{"Compound": "CN(C)[C@@H]1C(O)=C(C(N)=O)C(=O)[C@@]2(O)C(O)=C3C(=O)c4c(O)cccc4[C@@](C)(O)[C@H]3C[C@@H]12", "Assay target": "Klebsiella aerogenes", "Relational operator": "=", "MIC (µg/mL)": 64}
{"Compound": "CO[C@@]1(NC(=O)Cc2cccs2)C(=O)N2C(C(=O)O)=C(COC(N)=O)CS[C@@H]21", "Assay target": "Klebsiella aerogenes", "Relational operator": ">", "MIC (µg/mL)": 1020}
{"Compound": "CO/N=C(\\C(=O)N[C@@H]1C(=O)N2C(C(=O)[O-])=C(C[N+]3(C)CCCC3)CS[C@H]12)c1csc(N)n1", "Assay target": "Klebsiella aerogenes", "Relational operator": "=", "MIC (µg/mL)": 64}
{"Compound": "CC(C)(O/N=C(\\C(=O)N[C@@H]1C(=O)N2C(C(=O)[O-])=C(C[n+]3ccccc3)CS[C@H]12)c1csc(N)n1)C(=O)O", "Assay target": "Klebsiella aerogenes", "Relational operator": ">", "MIC (µg/mL)": 2050}
{"Compound": "CCn1cc(C(=O)O)c(=O)c2cc(F)c(N3CCNCC3)cc21", "Assay target": "Klebsiella aerogenes", "Relational operator": "=", "MIC (µg/mL)": 512}
{"Compound": "O=C(N[C@H](CO)[C@H](O)c1ccc([N+](=O)[O-])cc1)C(Cl)Cl", "Assay target": "Klebsiella aerogenes", "Relational operator": "=", "MIC (µg/mL)": 512}
{"Compound": "C[C@@H]1CN(c2c(F)c(N)c3c(=O)c(C(=O)O)cn(C4CC4)c3c2F)C[C@H](C)N1", "Assay target": "Klebsiella aerogenes", "Relational operator": "=", "MIC (µg/mL)": 128}
{"Compound": "C[C@@H](O)[C@H]1C(=O)N2C(C(=O)O)=C(SCCNC=N)C[C@H]12 [IMIPENEM ANHYDROUS]", "Assay target": "Klebsiella aerogenes", "Relational operator": "=", "MIC (µg/mL)": 2}

* * *

- Tested on: Klebsiella aerogenes
- Method: Antimicrobial activity against multidrug resistant Enterobacter aerogenes isolate 22 by broth dilution method
- Format: functional

{"Input smiles": "CO[C@@]1(NC(=O)Cc2cccs2)C(=O)N2C(C(=O)O)=C(COC(N)=O)CS[C@@H]21", "Relational operator": ">", "MIC [µg/mL]": 1020}
{"Input smiles": "CCn1cc(C(=O)O)c(=O)c2cc(F)c(N3CCNCC3)cc21", "Relational operator": "=", "MIC [µg/mL]": 256}
{"Input smiles": "C[C@@H]1CN(c2c(F)c(N)c3c(=O)c(C(=O)O)cn(C4CC4)c3c2F)C[C@H](C)N1", "Relational operator": "=", "MIC [µg/mL]": 256}
{"Input smiles": "CN(C)[C@@H]1C(O)=C(C(N)=O)C(=O)[C@@]2(O)C(O)=C3C(=O)c4c(O)cccc4[C@@](C)(O)[C@H]3C[C@@H]12", "Relational operator": "=", "MIC [µg/mL]": 128}
